# ASSAY SUMMARY: gradient 5% acetonitrile 3 min, to 50% in 2 min, to 85% in 15 min, held 3 min, 100 µL/min
# COND: column: Zorbax Extend-C18 2.1 x 50 mm; eluents: water / acetonitrile, 0.1% formic acid
Mark Fulfilled only when RP-LC retention time stays strictly below 700 s. Values equal to the cut-off are Not fulfilled.

## Input Report whether reported RP-LC retention time is lower than 700 s (strictly) for CC(=O)Nc1ccc(CCc2nc3ccc(C(=O)NCc4ccc5c(c4)OCO5)cc3[nH]2)cc1
## Output Fulfilled

## Input Does the reported RP-LC retention time of COc1cccc(C(=O)NCCCc2ccc(N(C)C)cc2)c1OC stay below 700 s?
## Output Fulfilled

## Input Quick check: RP-LC retention time of Cc1cc(C(=O)Nc2nc(-c3ccc(F)cc3)c(C)s2)no1 under 700 s?
## Output Not fulfilled

## Input Hello, is RP-LC retention time of the following compound strictly smaller than 700 s? Cc1cnc(C(=O)NC2C[C@H]3CC[C@@H](C2)N3C(=O)CCC2CCCCC2)cn1 (stereo not given in full)
## Output Not fulfilled

## Input For this compound, is RP-LC retention time lower than 700 s? Cc1ccc2oc(C(=O)Nc3ccc(-n4cnnn4)cc3)c(C)c2c1
## Output Not fulfilled

## Input Given the entry Cc1ccc(-c2noc(Cn3c(=O)n(Cc4ccco4)c(=O)c4ccccc43)n2)cc1 , would its reported RP-LC retention time be below 700 s?
## Output Not fulfilled

## Input Is it true that RP-LC retention time reported for Cn1cccc1Cc1nnc(SCC(=O)NO)n1Cc1ccccc1 is less than 700 s?
## Output Fulfilled

## Input Please indicate whether the reported RP-LC retention time of O=C(Cc1c[nH]c2ccccc12)NC1CCN(c2ccc(=O)[nH]n2)C1 (stereo not given) is strictly below 700 s.
## Output Fulfilled

## Input Just wondering, is RP-LC retention time of Cc1ccc(C2CC(=O)c3cnc(N4CCN(c5ccccn5)CC4)nc3C2)cc1 (stereo not given) below 700 s?
## Output Not fulfilled

## Input Please state whether RP-LC retention time is below 700 s for CC(C)(Oc1ccc(Cl)cc1)C(=O)NCC1(O)CCc2ccccc21 (stereo not given)
## Output Not fulfilled

## Input Does O=C1CCCc2cc(S(=O)(=O)NCCN3CCN(c4ccccc4F)CC3)ccc2N1 have RP-LC retention time strictly under 700 s?
## Output Fulfilled

## Input API: query returns whether the compound falls strictly under 700 s in RP-LC retention time. Query: O=C(C1CCN(c2ncnc3c2oc2ccccc23)CC1)N1CCN(C2CCCCC2)CC1
## Output Fulfilled

## Input Identify whether the compound CCOc1cccc(-c2noc(Cn3c(=O)n(-c4cccc(F)c4)c(=O)c4sccc43)n2)c1 records RP-LC retention time below 700 s.
## Output Not fulfilled

## Input Would you kindly verify if RP-LC retention time of COc1ccc(NC(=O)N2[C@H]3CC[C@@H]2c2cnc(-c4ccccc4)nc2C3)cc1OC is strictly less than 700 s?
## Output Not fulfilled

## Input Determine if COc1ccc(NC(=O)NC2CCN(c3ccc(F)cc3)C2=O)cc1OC (stereo not given) shows RP-LC retention time strictly lower than 700 s.
## Output Not fulfilled

## Input Report whether reported RP-LC retention time is lower than 700 s (strictly) for O=C(NCCn1c(-c2ccccc2)nc2cccnc21)Nc1ccccc1
## Output Fulfilled

## Input Item CCS(=O)(=O)Nc1ccc(C2(C(=O)NCc3cccc(C)c3)CCC2)cc1 : RP-LC retention time beneath 700 s, strictly?
## Output Not fulfilled

## Input Please determine if O=C(Cn1c(=O)cc(-c2nc(C3CC3)no2)c2ccccc21)NCc1ccc(Cl)cc1 is below 700 s in terms of RP-LC retention time.
## Output Not fulfilled

## Input State whether 700 s exceeds RP-LC retention time recorded for COc1cccc(-c2cc(=O)n3c4ccccc4n(CC(=O)Nc4ccc5c(c4)OCO5)c3n2)c1 .
## Output Not fulfilled

## Input Here's an entry: O=C(Cn1nc2n(c1=O)CCCC2)NCc1ccccc1Br . Is its RP-LC retention time below 700 s?
## Output Fulfilled

## Input In plain terms, does CCOc1ccc(-c2noc(CN3N=NC4C(=O)N(c5ccc(OC)cc5)C(=O)C43)n2)cc1OC (stereo not given) come in under 700 s for RP-LC retention time?
## Output Not fulfilled

## Input # check: RP-LC retention time < 700 s for CCn1cnc(S(=O)(=O)N2CCCC(C(=O)NCCN3CCCCCC3)C2)c1 (stereo not given)
## Output Fulfilled

## Input Given the entry CCC(=O)N(C)CCc1noc(COc2cccc(C(F)(F)F)c2)n1 , would its reported RP-LC retention time be below 700 s?
## Output Not fulfilled

## Input Here's an entry: CCc1ccccc1NC(=O)N1CC(Cc2nncn2C(C)C)C1 . Is its RP-LC retention time below 700 s?
## Output Fulfilled

## Input Hi there! Is RP-LC retention time for Cc1nn(CC(=O)N2CCc3ccccc3C2)c(=O)c2nn(-c3ccccc3)c(C)c12 below 700 s, do you know?
## Output Not fulfilled

## Input Please check: RP-LC retention time for Cc1ccc(CNC(=O)C2(C)CN(S(C)(=O)=O)CC(=O)N2Cc2ccc(F)cc2)cc1 (stereo not given) , strictly under 700 s or not?
## Output Not fulfilled
